Attribution: patent US10765681B2

We begin with a simple list: items and their reported melting point.

CCOc1ccc(-c2nc(C(N)=O)c3nc(S)n(-c4cc(C(F)(F)F)cc(C(F)(F)F)c4)c3n2)cc1 [Compound 10c]: 299 to 301 °C
CCOc1ccc(-c2nc(C#N)c3nc(SC(=O)OCc4ccccc4)n(-c4ccccc4)c3n2)cc1 [Compound 28a]: 179.2 to 180.4 °C

Query compound follows.
Data request: Any idea what its melting point is? The compound is CCOc1ccc(-c2nc(C#N)c3[nH]c(=O)n(-c4cccc(C(=O)OC)c4)c3n2)cc1 [Compound 12c]
Data returned: 297 to 299 °C

* * *

# Test system: H1975 lung cancer cells
# Method Description: MTT assay, growth of H1975 lung cancer cells
# Format: cell-based
# Test Parameters: Homo sapiens, NCI-H1975; H1975 lung cancer cell line; MTT; Table 3; read-out: IC50 H1975
Readout Label: IC50 (µM)
Kindly provide the numeric value in µM only, without the unit symbol.

Worked examples follow.
COc1ccc(-c2nc(C#N)c3[nH]c(=O)n(-c4ccccc4OC)c3n2)cc1O [Compound 12f]: 25.8
CCOc1ccc(-c2nc(C(=N)NOC(=O)Oc3ccccc3)c3[nH]c(=O)n(-c4ccccc4OC)c3n2)cc1 [Compound 22b]: 3.1
CCOc1ccc(-c2nc(C#N)c3[nH]c(=O)n(-c4ccc([N+](=O)[O-])cc4)c3n2)cc1 [Compound 12d]: 6.2
CCOc1ccc(-c2nc(C(=O)NOC)c3[nH]c(=O)n(-c4ccccc4OC)c3n2)cc1 [Compound 19b]: 0.3
CCOc1ccc(-c2nc(-c3noc(C)n3)c3[nH]c(=O)n(-c4ccccc4OC)c3n2)cc1 [Compound 24a]: 17
CCCCNC(=N)c1nc(-c2ccc(OCC)cc2)nc2c1[nH]c(=O)n2-c1ccccc1OC [Compound 13a]: 79
CCOc1ccc(-c2nc(C#N)c3[nH]c(=O)n(-c4cccc([N+](=O)[O-])c4)c3n2)cc1 [Compound 12e]: 4.1
CCOc1ccc(-c2nc(C#N)c3nc(OC(=O)OCc4ccccc4)n(-c4ccccc4OC)c3n2)cc1 [Compound 17c]: 34
CCOc1ccc(-c2nc(C#N)c3nc(Cl)n(-c4ccccc4OC)c3n2)cc1 [Compound 31a]: 0.7
CCOc1ccc(-c2nc(C(=N)NOC)c3c(n2)n(-c2ccccc2OC)c(=O)n3C)cc1 [Compound 21b]: 42

Data request: Any idea what its IC50 is? The compound is C=CCn1c(=O)n(-c2ccccc2OC)c2nc(-c3ccc(OCC)cc3)nc(C(=N)NOC(=O)Oc3ccccc3)c21 [Compound 23a]
Data returned: 51.1

Data request: Any idea what its IC50 is? The compound is CCOc1ccc(-c2nc(C(N)=O)c3nc(SC(C)=O)n(-c4ccccc4)c3n2)cc1 [Compound 26a]
Data returned: 41.6

Data request: Any idea what its IC50 is? The compound is CCOc1ccc(-c2nc(C(=O)O)c3nc(S)n(-c4ccccc4)c3n2)cc1 [Compound 29a]
Data returned: 43.6

* * *

We begin with a simple list: items and their reported melting point.

Worked examples follow.
C=CCn1c(=O)n(-c2ccccc2OC)c2nc(-c3ccc(OCC)cc3)nc(C(=N)NOC(=O)Oc3ccccc3)c21 [Compound 23a]: 83 to 85 °C
COC(=O)c1cccc(-n2c(=O)[nH]c3c(C(N)=O)nc(-c4ccc(OC)c(O)c4)nc32)c1: 333.3 to 334.3 °C

Data request: Any idea what its melting point is? The compound is CCOc1ccc(-c2nc(C#N)c3nc(N(C(C)=O)C(C)=O)n(-c4ccccc4OC)c3n2)cc1 [Compound 35a]
Data returned: 210 to 212 °C

Data request: Any idea what its melting point is? The compound is CCOc1ccc(-c2nc(C#N)c3[nH]c(=O)n(-c4cccc([N+](=O)[O-])c4)c3n2)cc1 [Compound 12e]
Data returned: 296.1 to 297.8 °C

Data request: Any idea what its melting point is? The compound is CCOc1ccc(-c2nc(C#N)c3nc(OC(=O)OCc4ccccc4)n(-c4ccccc4OC)c3n2)cc1 [Compound 17c]
Data returned: 228 to 230 °C

Data request: Any idea what its melting point is? The compound is COc1ccc(-c2nc(C(N)=O)c3nc(S)n(-c4ccccc4)c3n2)cc1O [Compound 10b]
Data returned: 368.9 to 369.7 °C (dec.)

Data request: Any idea what its melting point is? The compound is CCOc1ccc(-c2nc(C(N)=O)c3[nH]c(=O)n(-c4cc(C(F)(F)F)cc(C(F)(F)F)c4)c3n2)cc1
Data returned: 288 to 290 °C

* * *

Readout Label: melting point

CCOc1ccc(-c2nc(C#N)c3[nH]c(=O)n(-c4ccccc4OC)c3n2)cc1 [Compound 12a]: 288 to 290 °C
CCOc1ccc(-c2nc(C#N)c3nc(NC(=O)OC(C)(C)C)n(-c4ccccc4OC)c3n2)cc1 [Compound 34a]: 260 to 262 °C (dec.)
CCCCNC(=N)c1nc(-c2ccc(OCC)cc2)nc2c1[nH]c(=O)n2-c1ccccc1OC [Compound 13a]: 375 to 377 °C

Query compound follows.
Data request: Any idea what its melting point is? The compound is CCOc1ccc(-c2nc(C#N)c3nc(OC(=O)Oc4ccccc4)n(-c4ccccc4OC)c3n2)cc1 [Compound 17d]
Data returned: 247 to 249 °C

* * *

We begin with a simple list: items and their reported melting point.

CCCCOc1ccc(-c2nc(C(N)=O)c3[nH]c(=O)n(-c4ccccc4OC)c3n2)cc1: 268.7 to 270.2 °C
CCOc1ccc(-c2nc(C#N)c3[nH]c(=O)n(-c4ccc(C(=O)OC)cc4)c3n2)cc1 [Compound 12b]: 311.1 to 312.2 °C
CCOc1ccc(-c2nc(C(=O)NOC)c3[nH]c(=O)n(-c4ccccc4OC)c3n2)cc1 [Compound 19b]: 260.5 to 261.6 °C
CCOc1ccc(-c2nc(-c3noc(C)n3)c3[nH]c(=O)n(-c4ccccc4OC)c3n2)cc1 [Compound 24a]: 291 to 293 °C
CCOc1ccc(-c2nc(C#N)c3nc(Cl)n(-c4ccccc4OC)c3n2)cc1 [Compound 31a]: 215 to 217 °C

Data request: Any idea what its melting point is? The compound is CCOc1ccc(-c2nc(C(N)=O)c3[nH]c(=O)n(-c4ccc([N+](=O)[O-])cc4)c3n2)cc1
Data returned: 307.6 to 309 °C

Data request: Any idea what its melting point is? The compound is CCOc1ccc(-c2nc(C#N)c3nc(OC(=O)OC(C)(C)C)n(-c4ccccc4OC)c3n2)cc1 [Compound 17b]
Data returned: 278 to 280 °C

Data request: Any idea what its melting point is? The compound is CCOc1ccc(-c2nc(C#N)c3c(n2)n(-c2ccccc2OC)c(=O)n3Cc2ccccc2)cc1 [Compound 15c]
Data returned: 164 to 166 °C

Data request: Any idea what its melting point is? The compound is CCOc1ccc(-c2nc(C(=O)NN)c3[nH]c(=O)n(-c4ccccc4OC)c3n2)cc1 [Compound 20a]
Data returned: 273.7 to 274.5 °C

Data request: Any idea what its melting point is? The compound is NC(=O)c1nc(-c2ccc(O)cc2)nc2c1nc(S)n2-c1ccccc1
Data returned: 361 to 363 °C

Data request: Any idea what its melting point is? The compound is CCOc1ccc(-c2nc(C(=N)NO)c3nc(N)n(-c4ccccc4OC)c3n2)cc1 [Compound 36a]
Data returned: 245 to 247 °C

Data request: Any idea what its melting point is? The compound is CCOc1ccc(-c2nc(C#N)c3nc(S)n(-c4ccccc4)c3n2)cc1 [Compound 27a]
Data returned: 278.5 to 280 °C

Data request: Any idea what its melting point is? The compound is CCOC(=O)Oc1nc2c(C#N)nc(-c3ccc(OCC)cc3)nc2n1-c1ccccc1OC [Compound 17a]
Data returned: 270 to 272 °C

* * *

# System: H1975 lung cancer cells
# Method Description: MTT assay, growth of H1975 lung cancer cells
# Assay type: cell-based
# Test Parameters: Homo sapiens, NCI-H1975; H1975 lung cancer cell line; MTT; Table 3; read-out: IC50 H1975
We begin with a simple list: items and their reported pIC50.
Give only the number. pIC50 is defined as minus log10 of concentration in molar units.

Worked examples follow.
CCOc1ccc(-c2nc(C#N)c3nc(OC(=O)OC(C)(C)C)n(-c4ccccc4OC)c3n2)cc1 [Compound 17b]: 4.89
CCOc1ccc(-c2nc(C#N)c3nc(OC(=O)Oc4ccccc4)n(-c4ccccc4OC)c3n2)cc1 [Compound 17d]: 4.60

Data request: Any idea what its pIC50 is? The compound is CCOc1ccc(-c2nc(C(=O)NN(C)C)c3[nH]c(=O)n(-c4ccccc4OC)c3n2)cc1 [Compound 20b]
Data returned: 5.16
